biological target: BMP-7 receptor of ROS cell plasma membrane fraction (ROS cell type II BMP receptor) (rat); experiment: radioligand receptor assay, displacement of 125I-BMP-7 from ROS cell plasma membranes
Bridges are numbered along the chain shown (N, C = ends). Where no end group is shown, it is not given here.
quantityName: IC50 (nM)
I only need the number, in nM, no unit after it.

Data point: CYFDDSSNVIC (disulfide 1-11 (inferred)) [F2-2] ; IC50 = 1000
